// provenance: patent EP2406206B1

pEC50 overview
- TESTED_SYSTEM: human estrogen receptor β receptor (hERβ) (Homo sapiens)
- Sequence (Q92731 whole entry): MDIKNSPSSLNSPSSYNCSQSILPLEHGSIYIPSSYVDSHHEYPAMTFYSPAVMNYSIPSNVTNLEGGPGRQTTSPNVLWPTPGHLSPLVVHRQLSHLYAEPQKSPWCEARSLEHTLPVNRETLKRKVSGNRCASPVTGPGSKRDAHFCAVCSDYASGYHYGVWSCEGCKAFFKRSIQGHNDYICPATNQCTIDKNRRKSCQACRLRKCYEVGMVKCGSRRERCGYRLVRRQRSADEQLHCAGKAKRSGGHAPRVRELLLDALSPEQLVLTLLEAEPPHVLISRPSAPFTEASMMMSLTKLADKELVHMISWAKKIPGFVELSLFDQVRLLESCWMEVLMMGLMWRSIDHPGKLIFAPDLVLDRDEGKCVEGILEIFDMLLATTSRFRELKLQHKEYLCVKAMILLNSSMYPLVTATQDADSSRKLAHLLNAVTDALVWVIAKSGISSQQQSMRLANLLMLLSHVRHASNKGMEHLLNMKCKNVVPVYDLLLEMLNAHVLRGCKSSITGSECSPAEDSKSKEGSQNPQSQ
- METHOD: ERβ transactivation bioassay in recombinant CHO cells (rat oxytocin promoter, luciferase reporter)
- PARTICULARS: transactivation of luciferase via hERβ in CHO cells; read-out: ERβ agonistic EC50
Quick note: pEC50 values are minus log10 of concentrations in mol/L.

1. C[C@H]1[C@@H](c2ccc(O)cc2)Cc2ccc(O)cc2[C@H]1Cc1ccccc1C#N (single isomer, unassigned) [Compound 11j]
9.85

Inquiry: Requested field: pEC50. Item: CC1C(c2ccc(O)cc2)Cc2ccc(O)cc2C1Cc1cccc(F)c1 (racemic)
Reply text: 8.52

Inquiry: Entry CCCC1C(c2ccc(O)cc2)Cc2ccc(O)cc2C1Cc1ccccc1F (racemic) : reported pEC50 = ?
Reply text: 9.40

Inquiry: Sample CC1C(c2ccc(O)cc2)Cc2ccc(O)cc2C1Cc1ccc(F)cc1 (racemic) — what was its pEC50?
Reply text: 8.64

Inquiry: Form field: reported pEC50 of CCC1C(c2ccc(O)cc2F)Cc2ccc(O)cc2C1Cc1ccccc1F (racemic)
Reply text: 9.77

Inquiry: // pEC50 lookup, key: CC1C(c2ccc(O)cc2)Cc2ccc(O)cc2C1Cc1ccccc1Cl (racemic)
Reply text: 9.48

Inquiry: # input compound: C[C@H]1[C@@H](c2ccc(O)cc2)Cc2ccc(O)cc2[C@H]1Cc1ccc(F)cc1 (single isomer, unassigned) [Compound 11g] ; wanted: its pEC50
Reply text: 8.85

Inquiry: # pEC50 lookup, item CC1C(c2ccc(O)cc2)Cc2ccc(O)cc2C1Cc1ccccc1 (racemic)
Reply text: 9.17

Inquiry: So what does the record say about pEC50 for C[C@H]1[C@@H](c2ccc(O)cc2)Cc2ccc(O)cc2[C@H]1Cc1cccc(F)c1 (single isomer, unassigned) [Compound 11f] ?
Reply text: 8.92

Inquiry: Look up pEC50: CC[C@H]1[C@@H](c2ccc(O)cc2)Cc2ccc(O)cc2[C@H]1Cc1ccc(F)cc1 (single isomer, unassigned) [Compound 11w]
Reply text: 9.44
